Data provenance is the supplement of paper PMC6555819.

PBM binding z-score listing for selected sequences.
Test system: RARg:RXRa (NR concentration 270 nM, RXRa partner concentration 90 nM)
Experiment: PBM binding z-score (relative to random genomic background probes); higher = stronger binding; sequences stand for … in GC…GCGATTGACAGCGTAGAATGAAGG
// no unit, no text: just the number

Known results for sequences:
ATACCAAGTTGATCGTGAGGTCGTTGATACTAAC; 1.26
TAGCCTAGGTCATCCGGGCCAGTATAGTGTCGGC; 4.1
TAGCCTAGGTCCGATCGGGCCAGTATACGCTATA; -0.722
CCTAGATGGTCAAGGTCACACACGCTATAGGTAC; 4.69
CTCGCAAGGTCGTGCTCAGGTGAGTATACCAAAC; 3.26

Alright, here's another sequence for you.
Item under review: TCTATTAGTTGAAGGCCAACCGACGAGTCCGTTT . Reported PBM binding z-score? 0.229
